Data origin: the supplement of paper PMC6522484

Tested on: DLD1
Method summary: cell viability (CellTiter-Glo) relative to plate median (fraction of plate median); higher = more viable cells
Experimental conditions: 5 µM; treatment time 24 h; reporter: 7TFP
Task for the reader: assign each of the following molecules its reported cell viability.
The reply should be a number, written without any unit.

Request: Give its cell viability value. Item: CC(=O)[C@H]1CC[C@H]2[C@@H]3CC=C4C[C@@H](O)CC[C@]4(C)[C@H]3CC[C@]12C
Response: 1.07

Request: Item: O=C1OC(=O)[C@H]2[C@@H]1[C@@H]1CC[C@H]2O1
Response: 0.998

Request: Item: O=C(O)c1cc(O)c2c(c1)C(=O)c1cc(O)cc(O)c1C2=O
Response: 0.873

Request: Item: CC(C(=O)O)[C@H]1CCC2C3CC=C4C[C@@H](O)CC[C@]4(C)C3CC[C@@]21C (stereo partly drawn) [3beta-HYDROXY-23,24-BISNORCHOL-5-ENIC ACID]
Response: 1.09

Request: Item: Nc1ncnc2c1ncn2[C@H]1C[C@H](O)[C@@H](CO)O1
Response: 1.07

Request: Item: CC(=O)O[C@H]1C(=O)[C@@]2(C)[C@H]([C@H](OC(=O)c3ccccc3)[C@]3(O)C[C@H](OC(=O)[C@H](O)[C@@H](NC(=O)c4ccccc4)c4ccccc4)C(C)=C1C3(C)C)[C@]1(OC(C)=O)CO[C@@H]1C[C@@H]2O
Response: 0.901

Request: Item: Cc1cc(O)c2c3c(ccc2c1)C(=O)c1c(O)cccc1C3=O
Response: 1.02

Request: Item: CC(=O)OCC(=O)[C@@]1(O)CC[C@H]2[C@@H]3CCC4=CC(=O)CC[C@]4(C)[C@@]3(F)[C@@H](O)C[C@@]21C
Response: 0.975

Request: Item: CC(C)(O)CC[C@@H](O)[C@](C)(O)[C@H]1CC[C@@]2(O)C3=CC(=O)[C@@H]4C[C@@H](O)[C@@H](O)C[C@]4(C)[C@H]3CC[C@]12C
Response: 0.977

Request: Item: CC(=O)O[C@@](C)(CCC=C(C)C)C1CC=C(C)CC1 (stereo partly drawn)
Response: 0.974

Request: Item: C=C1CCC2C(CC2(C)C)C(=C)CC/C1=N/O (stereo not drawn)
Response: 1.03

Request: Item: CCC(=O)NCC[C@@H]1CCc2ccc3c(c21)CCO3
Response: 1.04

Request: Item: C=CC(C1=CC(=O)C(OC)=CC1=O)c1ccc(O)cc1 (stereo not drawn)
Response: 1.01

Request: Item: CC1(C)C(O[C@@H]2OC[C@@H](O)[C@H](O)[C@H]2O)CC[C@]23CC24CC[C@]2(C)[C@@H]([C@@]5(C)CC[C@@H](C(C)(C)O)O5)[C@H](O)C[C@@]2(C)C4C[C@@H](O[C@@H]2O[C@H](CO)[C@@H](O)[C@H](O)[C@H]2O)C13 (stereo partly drawn)
Response: 0.987

Request: Item: CO/N=C1\CN(c2nc3c(cc2F)c(=O)c(C(=O)O)cn3C2CC2)CC1CN (stereo not drawn)
Response: 1.04

Request: Item: C[C@@H]1CC[C@H]2[C@](C)(CO)[C@@H](O)CC[C@]2(C)[C@@]12CC[C@@](CO)(CCO)O2
Response: 0.994

Request: Item: CCOc1ccc(C(=O)c2ccc(O)c(O)c2O)cc1
Response: 0.928

Request: Item: O=c1c(O)c(-c2ccc(O)c(O)c2)oc2cc(O)cc(O)c12
Response: 0.945
